- System: UO-31
- PROTOCOL_TEXT: NCI tumour cell line growth inhibition, 48 h
Activity calls are given as the source filed them. No stated cut-off is given here; in the data, active = GI50 up to about 1.1 µM and inactive = higher.
MEASURED_METRIC: GI50

| COMPOUND | TEST_RESULT |
| --- | --- |
| COc1cc2cnc3c4cc(OC(C)C)c(OC)cc4ccc3c2cc1OC | > 100 µM (inactive) |
| CC1(C)OC2C(CO)OC(n3ccc(=O)[nH]c3=O)C2O1 (stereo not given) | > 100 µM (inactive) |
| CC1OC(OC2C(Oc3cc(O)c4c(c3)O[C@H](c3ccc(O)cc3)CC4=O)OC(CO)C(O)C2O)C(O)C(O)C1O (stereo not given in full) | > 100 µM (inactive) |
| CCN(CC)CCNc1n[n+]([O-])c2cc([N+](=O)[O-])ccc2[n+]1[O-] | 1.49 µM (inactive) |
| CCN1C(=O)C(C)S/C1=N\NC(=O)CSc1nc2ccccc2c(=O)n1CC (stereo not given) | 72.9 µM (inactive) |
| COc1cc2c(C)cc(O)cc2c2cc(O)c(C)cc12 | 9.66 µM (inactive) |
| Cc1c2ccnc(O)c2cc2c(=O)c3cnccc3[nH]c12 | > 100 µM (inactive) |
| C/C(=N\O)c1cccc(Nc2c3ccccc3nc3occc23)c1 | 7.18 µM (inactive) |
| Cn1c2ccccc2c(=O)c2cccc(C(=O)NC(CS)C(=O)O)c21 (stereo not given) | > 100 µM (inactive) |
| CC1=CC(=O)CC2(C)CCC(C(C)CC(=O)CC(C)C)CC12 (stereo not given) | 31.2 µM (inactive) |

###

- Test system: SNB-78
- PROTOCOL_TEXT: NCI tumour cell line growth inhibition, 48 h
Activity calls are given as the source filed them. Rule as the data show it: active = GI50 up to about 1.1 µM and inactive = higher.
Outcome codes: 1 (active), 0 (inactive)

| COMPOUND | CAT |
| --- | --- |
| Cc1c2ccnc(O)c2cc2c(=O)c3cnccc3[nH]c12 | 0 |
| CC(C)=CC(=O)OC1C2C(C)=CC(=O)C(O)C2(C)C2C3(O)OCC24C(CC(=O)OC14)C(C)C3O (centres undefined) | 1 |
| CCCCOC(=O)CNC(=O)OC/C=C/C#CC#C/C=C/COC(=O)NCC(=O)OCCCC | 0 |
| Cc1nc(Nc2ccc([N+](=O)[O-])cc2)sc1C(/C=C/c1ccc(N(C)C)cc1)=N/NC(=O)c1ccccc1 | 0 |
| COC(=O)C12C3C4C1C1C2C3C41C(=O)O (centres undefined) | 0 |
| COC1(OC)CC2C(=O)N(Cc3ccccc3)C1C(S(=O)(=O)c1ccccc1)C2S(=O)(=O)c1ccccc1 (centres undefined) | 0 |
| CN(C)CC1CCCC/C1=N\OC(=O)c1ccccc1 (centres undefined) | 0 |
| CCOC(=O)C1(C#N)C(c2ccccc2)CC(O)(c2ccc(OC)cc2)C(C(=O)c2ccc(OC)cc2)C1c1ccccc1 (centres undefined) | 0 |
| CCOC(=O)/C(ON)=C(/CC/C(C(=O)OC)=C(\ON)C(=O)OCC)C(=O)OC | 0 |

###

Documented GI50 across a set of molecules
- Test system: SK-MEL-28
- PROTOCOL_TEXT: NCI tumour cell line growth inhibition, 48 h
Active and inactive are the calls of the source. Rule as the data show it: active = GI50 up to about 1.1 µM and inactive = higher.

| MOLECULE | GI50 |
| --- | --- |
| Cc1cc(CN2CCCCC2)c(O)c(CN2CCCCC2)c1 | > 100 µM (inactive) |
| C1CN(C23OC4(N5CCOCC5)C5C6CC(C7C6C4C72)C53)CCO1 (stereo unspecified) | > 100 µM (inactive) |
| CCCCNc1nc(N)nc(Nc2ccc(Br)cc2)c1N=O | > 100 µM (inactive) |
| O=C(SCc1cccc2ccccc12)c1ccc(Cl)cc1 | > 100 µM (inactive) |
| C=C1C(=O)O[C@H]2C/C(C)=C/CC[C@]3(C)CCC[C@](C)(CC[C@@H]12)O3 | 7.52 µM (inactive) |
| Cc1ccc(C(=O)N/N=C(\N=N\c2ccccc2Cl)c2ccc(N(C)C)cc2)cc1 | > 100 µM (inactive) |
| CCC12CC[C@H](C#N)N3CCc4c(n(c5ccccc45)C(=O)C1)C32 (stereo partly specified) | 15.2 µM (inactive) |
| OC(c1ccccc1)C(F)(F)c1nc2ccccc2o1 (stereo unspecified) | > 100 µM (inactive) |
| Sc1ncc(-c2cncc(-c3cnc(S)nc3)n2)cn1 | > 100 µM (inactive) |
| CCOc1ccc(C2Oc3c(cccc3OC)C=C2[N+](=O)[O-])cc1OCC (stereo unspecified) | 2.24 µM (inactive) |
| Cc1ccc(S(=O)(=O)N2CCCC2C(=O)O[C@H]2CC[C@H]3CC=C[C@H]32)cc1 (stereo partly specified) | 29.9 µM (inactive) |
| CCC(=O)C(C)C1=Nc2nnc(CCCCCCCc3nnc4n3C(=O)C(C(C)C(=O)CC)=N4)n2C1=O (stereo unspecified) | > 100 µM (inactive) |
| CC(C)C(=O)Cc1ccc2ccccc2n1 | > 100 µM (inactive) |
| COc1cc(CO)cc2c1[nH]c1ccccc12 | > 25 µM (inactive) |
| FC(F)(Sc1nc2ccccc2[nH]1)c1nc2ccccc2o1 | > 100 µM (inactive) |
| C/C(CN1C(=O)c2ccccc2C1=O)=N\NS(=O)(=O)c1cccc([N+](=O)[O-])c1 | > 100 µM (inactive) |
| O=[N+]([O-])c1ccc(/C=N/C23CC4CC(CC(C4)C2)C3)cc1 | > 100 µM (inactive) |
| NC(=O)OCC(COc1ccc(Cl)cc1)OC(=O)c1cc([N+](=O)[O-])cc([N+](=O)[O-])c1 (stereo unspecified) | > 100 µM (inactive) |
| CC1(C)CC[C@]2(C(=O)O)CC[C@]3(C)C(=CC[C@@H]4[C@@]5(C)CC[C@H](OC6OC(C(=O)O)C(O)C(O)C6O)C(C)(C)[C@@H]5CC[C@]43C)[C@@H]2C1 (stereo partly specified) | 19.6 µM (inactive) |
| O=C1/C(=C/c2ccccc2[N+](=O)[O-])N=C(c2ccccc2)N1C1Nc2cc3c(cc2S1)NC(N1C(=O)/C(=C/c2ccccc2[N+](=O)[O-])N=C1c1ccccc1)S3 (stereo unspecified) | > 100 µM (inactive) |
| NC1=C(O)c2cccc3cccc(c23)C1=O | > 100 µM (inactive) |

Values compiled from ChEMBL document CHEMBL1201862.
